assay system: Proton Pump (H^+/K^+-ATPase) (Sus scrofa, UniProt P19156)
Sequence (P19156 2-1034 limits assumed): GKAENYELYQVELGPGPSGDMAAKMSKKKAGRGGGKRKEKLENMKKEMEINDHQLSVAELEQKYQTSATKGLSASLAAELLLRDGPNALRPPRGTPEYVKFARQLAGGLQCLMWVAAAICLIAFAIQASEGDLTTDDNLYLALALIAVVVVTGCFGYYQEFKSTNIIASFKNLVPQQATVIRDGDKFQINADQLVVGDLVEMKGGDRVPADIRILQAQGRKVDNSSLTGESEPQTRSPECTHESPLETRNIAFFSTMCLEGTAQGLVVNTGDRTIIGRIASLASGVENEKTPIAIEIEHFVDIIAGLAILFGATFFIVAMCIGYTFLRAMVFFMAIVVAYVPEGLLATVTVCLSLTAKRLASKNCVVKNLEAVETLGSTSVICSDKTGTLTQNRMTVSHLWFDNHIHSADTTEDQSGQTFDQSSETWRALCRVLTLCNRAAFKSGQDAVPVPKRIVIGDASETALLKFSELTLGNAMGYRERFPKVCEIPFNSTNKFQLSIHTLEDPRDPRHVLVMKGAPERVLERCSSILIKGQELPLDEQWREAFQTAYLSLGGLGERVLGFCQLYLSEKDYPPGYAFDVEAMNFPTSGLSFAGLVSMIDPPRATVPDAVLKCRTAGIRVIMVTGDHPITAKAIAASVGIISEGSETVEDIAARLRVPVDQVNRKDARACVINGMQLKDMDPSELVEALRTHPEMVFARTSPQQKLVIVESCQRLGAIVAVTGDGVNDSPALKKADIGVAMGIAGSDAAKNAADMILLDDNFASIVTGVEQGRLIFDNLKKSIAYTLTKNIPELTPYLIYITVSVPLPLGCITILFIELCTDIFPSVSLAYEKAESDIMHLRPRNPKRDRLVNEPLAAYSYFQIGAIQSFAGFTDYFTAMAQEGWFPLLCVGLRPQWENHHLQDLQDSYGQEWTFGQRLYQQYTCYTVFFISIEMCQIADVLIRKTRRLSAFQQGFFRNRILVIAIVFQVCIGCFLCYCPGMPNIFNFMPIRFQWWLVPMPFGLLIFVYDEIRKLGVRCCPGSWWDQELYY
Sequence (P18434 whole entry partner): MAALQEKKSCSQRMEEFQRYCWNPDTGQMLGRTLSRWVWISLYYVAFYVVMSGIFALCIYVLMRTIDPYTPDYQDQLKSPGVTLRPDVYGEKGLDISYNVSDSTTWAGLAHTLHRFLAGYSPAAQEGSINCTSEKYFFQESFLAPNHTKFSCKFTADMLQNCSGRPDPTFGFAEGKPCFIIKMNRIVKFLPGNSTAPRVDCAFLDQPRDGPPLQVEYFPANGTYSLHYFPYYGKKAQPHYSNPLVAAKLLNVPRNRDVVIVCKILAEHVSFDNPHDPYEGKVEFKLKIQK
test summary: Inhibitory effects on proton pump (H^+/K^+-ATPase) activity
experimental setup: hog gastric vesicles; K^+ stimulated H^+/K^+-ATPase activity; 30 minutes at 37° C.
Structures can show the parent of a compound that is named as a salt.
IC50 reference

compound: Cc1c(C)n(Cc2ccccc2)c2c(N3CCc4ccccc4C3)nc(C(=O)O)cc12 [Example 733]
assay system: Proton Pump (H^+/K^+-ATPase) (Sus scrofa, UniProt P19156)
IC50, µM: 0.117

compound: COCCn1c(C)c(C)c2cc(C(=O)O)nc(N3CCc4ccccc4C3)c21
assay system: Proton Pump (H^+/K^+-ATPase) (Sus scrofa, UniProt P19156)
IC50, µM: 0.366

compound: Cc1c(C)n(Cc2cccc(F)c2)c2c(N3CCc4ccccc4C3C)nccc12.Cl (stereo not shown) [Example 557, hydrochloride]
assay system: Proton Pump (H^+/K^+-ATPase) (Sus scrofa, UniProt P19156)
IC50, µM: 0.146

compound: Cc1c(C)n(Cc2cccc(Cl)c2)c2c(N3CCc4ccccc4C3)nc(C(=O)N3CCN(C)CC3)cc12 [Example 836, hydrochloride]
assay system: Proton Pump (H^+/K^+-ATPase) (Sus scrofa, UniProt P19156)
IC50, µM: 0.129
